- Study System: rat NMUR1-TTG (Rattus norvegicus, UniProt Q9JJI5)
- Sequence (Q9JJI5 1-425): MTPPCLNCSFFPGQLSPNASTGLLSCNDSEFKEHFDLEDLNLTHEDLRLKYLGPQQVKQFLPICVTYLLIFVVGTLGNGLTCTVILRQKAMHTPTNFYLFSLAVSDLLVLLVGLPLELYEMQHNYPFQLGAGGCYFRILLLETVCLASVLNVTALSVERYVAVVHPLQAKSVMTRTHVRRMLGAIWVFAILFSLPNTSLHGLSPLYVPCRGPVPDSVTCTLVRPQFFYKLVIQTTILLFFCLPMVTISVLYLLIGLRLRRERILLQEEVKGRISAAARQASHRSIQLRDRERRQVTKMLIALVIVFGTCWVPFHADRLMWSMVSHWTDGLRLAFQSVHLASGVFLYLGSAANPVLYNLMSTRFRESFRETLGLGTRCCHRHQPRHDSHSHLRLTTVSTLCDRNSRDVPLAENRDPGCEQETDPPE
- Assay Name: FLIPR calcium mobilization assay, rat NMUR1-TTG
- Assay type: cell-based
- Set-up: expressed in transfected cells; host or cells: FLP-In CHO or HEK-293 FLP-In cells (pcDNA5)
- Condition Summary: maximum response at 1 μM compared to hNMU-25; rat NMUR1-TTG
*: point of attachment. Palmitoyl = CCCCCCCCCCCCCCCC(=O)*
Each record here notes measured % Activity.
Kindly answer with a numeric value in %, unit omitted.

Study these solved cases before continuing.
substance="Ac-C4-C4-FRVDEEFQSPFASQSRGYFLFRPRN-CONH2 ({Ac-C(PEG 20 kDa)-C(PEG 20 kDa)}-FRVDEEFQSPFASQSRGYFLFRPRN-NH2) [NMU23, C4 = Cys(PEG)20 kDa]" study_system="rat NMUR1-TTG (Rattus norvegicus, UniProt Q9JJI5)" measured_value=39.8
substance="Ac-C4FRVDEEFQSPFASQSRGYFLFRPRN-CONH2 ({Ac-C(PEG 20 kDa)}-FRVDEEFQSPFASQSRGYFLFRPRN-NH2) [NMU21, C4 = Cys(PEG)20 kDa]" study_system="rat NMUR1-TTG (Rattus norvegicus, UniProt Q9JJI5)" measured_value=77.5
substance="Ac-C2FQSPFASQSRGYFLFRPRN-CONH2 ({Ac-C(PEG 40 kDa)}-FQSPFASQSRGYFLFRPRN-NH2; not fully specified; printed as Ac-C2FQSPFASQSRGYFLFRPRN-CONH2) [NMU20, C2 = Cys(PEG)240 kDa]" study_system="rat NMUR1-TTG (Rattus norvegicus, UniProt Q9JJI5)" measured_value=93.8

Give reported % Activity value for Pam-C2FRVDEEFQSPFASQSRGYFLFRPRN-CONH2 ({Palmitoyl-C(PEG 40 kDa)}-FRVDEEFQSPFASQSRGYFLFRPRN-NH2) [NMU25, Pam = palmitoyl; C2 = Cys(PEG)240 kDa]
93.5
